Value source: paper PMC9482650

Test system: MAGI3_2, Q5TCQ9
Sequence (Q5TCQ9 398-503): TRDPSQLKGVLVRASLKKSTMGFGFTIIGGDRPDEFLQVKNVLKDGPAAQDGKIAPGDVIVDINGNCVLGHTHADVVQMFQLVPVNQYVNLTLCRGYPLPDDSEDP
Method: holdup assay
Design: key: below the threshold = too weak to quantify, mostly under pKd 3.1 to 4
Condition parameters: plain residues with an end cap or a label only (N-terminal biotin on a linker: ahx)
Quantity name: pKd

binder="YNSFLSVTTV [PDZRN3, Q9UPQ7]" quantity_name=pKd value_reported=4.27
binder="HSATSVHTSV [MTMR1, Q13613]" quantity_name=pKd value_reported=3.59
binder="AKPQPVDSWV [ARVCF, O00192]" quantity_name=pKd value_reported=3.68
binder="ADENEQVSAV [RAPGEF6, Q8TEU7]" quantity_name=pKd value_reported=3.61
